I'd be grateful if you could share measured Activity for these entries.
experimental system: Oxytocin receptor (Rattus norvegicus)
test: Agonist activity in rat uterus by uterotonic assay
Format: functional, tissue-based
The reply should be a number in IU/mg, with the unit left off.

Prompt: Recorded Activity for CC[C@H](C)[C@@H]1NC(=O)[C@H](Cc2ccc(O)cc2)NC(=O)CCSSC[C@@H](C(=O)N2Cc3ccccc3C[C@H]2C(=O)N[C@@H](CC(C)C)C(=O)NCC(N)=O)NC(=O)[C@H](CC(N)=O)NC(=O)[C@H](CCC(N)=O)NC1=O , please?
Response: 3.5

Prompt: Entry CCOc1ccc(CC2NC(=O)CCSSC[C@@H](C(=O)N3CCCC[C@H]3C(=O)N[C@@H](CC(C)C)C(=O)NCC(N)=O)NC(=O)[C@H](CC(N)=O)NC(=O)[C@H](CCC(N)=O)NC(=O)[C@H]([C@@H](C)CC)NC2=O)cc1 (stereo in doubt) has what Activity?
Response: 0

Prompt: # get_value(readout='Activity', item= CCOc1ccc(C[C@H]2NC(=O)[C@@H](N)CSSC[C@@H](C(=O)N3CCC[C@H]3C(=O)N[C@@H](CC(C)C)C(=O)NCC(N)=O)NC(=O)[C@H](CC(N)=O)NC(=O)[C@H](CCC(N)=O)NC(=O)[C@H]([C@@H](C)CC)NC2=O)cc1 )
Response: 0

Prompt: Quick one: Activity of CC[C@H](C)[C@@H]1NC(=O)[C@H](Cc2ccc(O)cc2)NC(=O)CCSSC[C@H](C(=O)N2CCC[C@H]2C(=O)N[C@@H](CC(C)C)C(=O)NCC(N)=O)NC(=O)[C@H](CC(N)=O)NC(=O)[C@H](CCC(N)=O)NC1=O ?
Response: 803

Prompt: For the compound CC[C@H](C)[C@@H]1NC(=O)[C@H](Cc2ccc(O)cc2)NC(=O)[C@@H](N)CSSC[C@@H](C(=O)N2CCCC[C@H]2C(=O)N[C@@H](CC(C)C)C(=O)NCC(N)=O)NC(=O)[C@H](CC(N)=O)NC(=O)[C@H](CCC(N)=O)NC1=O , what Activity is on record?
Response: 79.8

Prompt: For the compound CCOc1ccc(CC2NC(=O)CCSSC[C@@H](C(=O)N3Cc4ccccc4C[C@@H]3C(=O)N[C@@H](CC(C)C)C(=O)NC(C)(C)C(N)=O)NC(=O)[C@H](CC(N)=O)NC(=O)[C@H](CCC(N)=O)NC(=O)[C@H]([C@@H](C)CC)NC2=O)cc1 (stereo in doubt) , what Activity is on record?
Response: 0

Prompt: Entry CCOc1ccc(CC2NC(=O)CCSSC[C@@H](C(=O)N3Cc4ccccc4C[C@@H]3C(=O)N[C@@H](CC(C)C)C(=O)NCC(N)=O)NC(=O)[C@H](CC(N)=O)NC(=O)[C@H](CCC(N)=O)NC(=O)[C@H]([C@@H](C)CC)NC2=O)cc1 (stereo in doubt) has what Activity?
Response: 0

Prompt: Consider the compound CC[C@H](C)[C@@H]1NC(=O)[C@H](Cc2ccc(O)cc2)NC(=O)[C@@H](N)CSSC[C@@H](C(=O)N2Cc3ccccc3C[C@@H]2C(=O)N[C@@H](CC(C)C)C(=O)NCC(N)=O)NC(=O)[C@H](CC(N)=O)NC(=O)[C@H](CCC(N)=O)NC1=O and give its measured Activity.
Response: 0
